target-under-test: δ opioid receptors (Mus musculus)
Construct: Bioassays Using Isolated Organ Preparations; from tissue; host or cells: isolated mouse vas deferens
assay-comment: MVD assay: inhibition of electrically evoked contractions of the mouse vas deferens (δ antagonist Ke)
Format: cell-based
conditions: δ agonist [Leu5]enkephalin, means of 3-8 determinations ± SEM
Residues, ends and D or L forms follow the SMILES beside them.
measurement-name: Ke in the MVD assay, antagonist potency against [Leu5]enkephalin

compound: CN1CC(=O)NCCC[C@@H](NC(=O)[C@@H](N)Cc2ccc(O)cc2)C(=O)N[C@@H](Cc2ccc3ccccc3c2)C(=O)N2CCC[C@@H]2C1=O [Example 2, H-Tyr-c[-D-Orn-2-Nal-D-Pro-Sar-]] (HELM PEPTIDE1{Y.[O=C([C@@H](CCCN[*:3])N[*:1])[*:2]].[O=C([C@H](Cc1ccc2ccccc2c1)N[*:1])[*:2]].[dP].[Sar]}$PEPTIDE1,PEPTIDE1,2:R3-5:R2$$$V2.0)
experimental-value: 17.0

----------
target-under-test: δ opioid receptor (Rattus norvegicus, UniProt P33533)
Construct: from tissue; host or cells: rat brain membranes (cerebellum removed), Sprague-Dawley
Sequence (P33533 whole entry): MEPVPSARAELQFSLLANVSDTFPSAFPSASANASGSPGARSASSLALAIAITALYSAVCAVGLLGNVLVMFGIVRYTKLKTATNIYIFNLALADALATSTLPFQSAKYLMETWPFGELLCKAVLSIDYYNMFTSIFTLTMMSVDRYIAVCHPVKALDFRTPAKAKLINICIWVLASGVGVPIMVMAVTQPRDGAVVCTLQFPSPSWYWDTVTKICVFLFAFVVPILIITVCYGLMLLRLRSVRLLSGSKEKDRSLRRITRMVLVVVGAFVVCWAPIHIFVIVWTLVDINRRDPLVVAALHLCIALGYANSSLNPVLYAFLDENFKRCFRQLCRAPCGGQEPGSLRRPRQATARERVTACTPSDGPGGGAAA
assay-comment: δ opioid receptor binding, displacement of δ-selective radioligand from rat brain membranes
conditions: ratio of binding constants
Residues, ends and D or L forms follow the SMILES beside them.
measurement-name: Ki^δ/Ki^μ (selectivity for μ versus δ receptors)

compound: CN[C@@H](Cc1ccc(O)cc1)C(=O)N[C@@H]1CCCNC(=O)CNC(=O)[C@H]2CCCN2C(=O)[C@H](Cc2ccc3ccccc3c2)NC1=O [Example 1, Tyr(NMe)-c[-D-Orn-2-Nal-D-Pro-Gly-]] (HELM PEPTIDE1{[meY].[O=C([C@@H](CCCN[*:3])N[*:1])[*:2]].[O=C([C@H](Cc1ccc2ccccc2c1)N[*:1])[*:2]].[dP].G}$PEPTIDE1,PEPTIDE1,2:R3-5:R2$$$V2.0)
experimental-value: 0.765

compound: N[C@@H](Cc1ccc(O)cc1)C(=O)N[C@@H]1CCCNC(=O)CNC(=O)[C@H]2CCCN2C(=O)[C@H](Cc2ccc3ccccc3c2)NC1=O [H-Tyr-c[-D-Orn-2-Nal-D-Pro-Gly-], reference compound] (HELM PEPTIDE1{Y.[O=C([C@@H](CCCN[*:3])N[*:1])[*:2]].[O=C([C@H](Cc1ccc2ccccc2c1)N[*:1])[*:2]].[dP].G}$PEPTIDE1,PEPTIDE1,2:R3-5:R2$$$V2.0)
experimental-value: 2.92

compound: CN1CC(=O)NCCC[C@@H](NC(=O)[C@@H](N)Cc2ccc(O)cc2)C(=O)N[C@@H](Cc2ccc3ccccc3c2)C(=O)N2CCC[C@@H]2C1=O [Example 2, H-Tyr-c[-D-Orn-2-Nal-D-Pro-Sar-]] (HELM PEPTIDE1{Y.[O=C([C@@H](CCCN[*:3])N[*:1])[*:2]].[O=C([C@H](Cc1ccc2ccccc2c1)N[*:1])[*:2]].[dP].[Sar]}$PEPTIDE1,PEPTIDE1,2:R3-5:R2$$$V2.0)
experimental-value: 0.163

----------
target-under-test: δ opioid receptors (Mus musculus, UniProt P32300)
Construct: Bioassays Using Isolated Organ Preparations; from tissue; host or cells: isolated mouse vas deferens
Sequence (P32300 whole entry): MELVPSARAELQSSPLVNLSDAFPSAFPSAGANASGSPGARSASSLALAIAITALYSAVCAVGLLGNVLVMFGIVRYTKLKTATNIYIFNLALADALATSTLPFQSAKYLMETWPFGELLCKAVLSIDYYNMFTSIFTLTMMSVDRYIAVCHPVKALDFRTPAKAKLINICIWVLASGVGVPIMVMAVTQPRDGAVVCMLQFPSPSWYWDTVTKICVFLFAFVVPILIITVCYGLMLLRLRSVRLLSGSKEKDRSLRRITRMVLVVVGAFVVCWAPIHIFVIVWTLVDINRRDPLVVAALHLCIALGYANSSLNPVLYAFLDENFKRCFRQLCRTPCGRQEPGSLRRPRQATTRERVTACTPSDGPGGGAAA
assay-comment: MVD assay: inhibition of electrically evoked contractions of the mouse vas deferens (δ antagonist Ke)
Type: cell-based
conditions: δ agonist DPDPE, means of 3-8 determinations ± SEM
Positions of bridges follow the written chain, without caps; N, C: chain ends. Non-standard residues stand in square brackets, D forms with d. Residues, ends and D or L forms follow the SMILES beside them. 2Nal = N[C@@H](Cc1ccc2ccccc2c1)C(=O)O; Dmt = Cc1cc(O)cc(C)c1C[C@H](N)C(=O)O; dOrn = NCCC[C@@H](N)C(=O)O; Sar = CNCC(=O)O
measurement-name: Ke in the MVD assay, antagonist potency against DPDPE

compound: CC1(C)NC(=O)[C@H]2CCCN2C(=O)[C@H](Cc2ccc3ccccc3c2)NC(=O)[C@H](NC(=O)[C@@H](N)Cc2ccc(O)cc2)CCCNC1=O [Example 6, H-Tyr-c[-D-Orn-2-Nal-D-Pro-Aib-]] (HELM PEPTIDE1{Y.[O=C([C@@H](CCCN[*:3])N[*:1])[*:2]].[O=C([C@H](Cc1ccc2ccccc2c1)N[*:1])[*:2]].[dP].[Aib]}$PEPTIDE1,PEPTIDE1,2:R3-5:R2$$$V2.0)
experimental-value: 31.6 ± 2.9

compound: N[C@@H](Cc1ccc(O)cc1)C(=O)N[C@@H]1CCCCNC(=O)CNC(=O)[C@H]2CCCN2C(=O)[C@H](Cc2ccc3ccccc3c2)NC1=O [H-Tyr-c[-D-Lys-2-Nal-D-Pro-Gly-], reference compound] (HELM PEPTIDE1{Y.[dK].[O=C([C@H](Cc1ccc2ccccc2c1)N[*:1])[*:2]].[dP].G}$PEPTIDE1,PEPTIDE1,2:R3-5:R2$$$V2.0)
experimental-value: 305 ± 52

compound: C[C@H]1NC(=O)[C@H]2CCCN2C(=O)[C@H](Cc2ccc3ccccc3c2)NC(=O)[C@H](NC(=O)[C@@H](N)Cc2ccc(O)cc2)CCCNC1=O [Example 5, H-Tyr-c[-D-Orn-2-Nal-D-Pro-D-Ala-]] (HELM PEPTIDE1{Y.[O=C([C@@H](CCCN[*:3])N[*:1])[*:2]].[O=C([C@H](Cc1ccc2ccccc2c1)N[*:1])[*:2]].[dP].[dA]}$PEPTIDE1,PEPTIDE1,2:R3-5:R2$$$V2.0)
experimental-value: 5.35 ± 0.42

compound: CC(C)[C@H]1NC(=O)[C@H]2CCCN2C(=O)[C@H](Cc2ccc3ccccc3c2)NC(=O)[C@H](NC(=O)[C@@H](N)Cc2ccc(O)cc2)CCCNC1=O [Example 8, H-Tyr-c[-D-Orn-2-Nal-D-Pro-D-Val-]] (HELM PEPTIDE1{Y.[O=C([C@@H](CCCN[*:3])N[*:1])[*:2]].[O=C([C@H](Cc1ccc2ccccc2c1)N[*:1])[*:2]].[dP].[dV]}$PEPTIDE1,PEPTIDE1,2:R3-5:R2$$$V2.0)
experimental-value: 20.9 ± 1.5

compound: Cc1cc(O)cc(C)c1C[C@H](N)C(=O)N[C@@H]1CCCNC(=O)CNC(=O)[C@H]2CCCN2C(=O)[C@H](Cc2ccc3ccccc3c2)NC1=O [Example 3, H-Dmt-c[-D-Orn-2-Nal-D-Pro-Gly-]] (H-[Dmt][dOrn][2Nal][dP]G; lactam 2-C)
experimental-value: 2.13 ± 0.51

compound: Cc1cc(O)cc(C)c1C[C@H](N)C(=O)N[C@@H]1CCCNC(=O)CN(C)C(=O)[C@H]2CCCN2C(=O)[C@H](Cc2ccc3ccccc3c2)NC1=O [Example 4, H-Dmt-c[-D-Orn-2-Nal-D-Pro-Sar-]] (H-[Dmt][dOrn][2Nal][dP][Sar]; lactam 2-C)
experimental-value: 16.4
